- targetOrSystem: protein kinase C beta-1 (Homo sapiens)
- Sequence (P05771 whole entry): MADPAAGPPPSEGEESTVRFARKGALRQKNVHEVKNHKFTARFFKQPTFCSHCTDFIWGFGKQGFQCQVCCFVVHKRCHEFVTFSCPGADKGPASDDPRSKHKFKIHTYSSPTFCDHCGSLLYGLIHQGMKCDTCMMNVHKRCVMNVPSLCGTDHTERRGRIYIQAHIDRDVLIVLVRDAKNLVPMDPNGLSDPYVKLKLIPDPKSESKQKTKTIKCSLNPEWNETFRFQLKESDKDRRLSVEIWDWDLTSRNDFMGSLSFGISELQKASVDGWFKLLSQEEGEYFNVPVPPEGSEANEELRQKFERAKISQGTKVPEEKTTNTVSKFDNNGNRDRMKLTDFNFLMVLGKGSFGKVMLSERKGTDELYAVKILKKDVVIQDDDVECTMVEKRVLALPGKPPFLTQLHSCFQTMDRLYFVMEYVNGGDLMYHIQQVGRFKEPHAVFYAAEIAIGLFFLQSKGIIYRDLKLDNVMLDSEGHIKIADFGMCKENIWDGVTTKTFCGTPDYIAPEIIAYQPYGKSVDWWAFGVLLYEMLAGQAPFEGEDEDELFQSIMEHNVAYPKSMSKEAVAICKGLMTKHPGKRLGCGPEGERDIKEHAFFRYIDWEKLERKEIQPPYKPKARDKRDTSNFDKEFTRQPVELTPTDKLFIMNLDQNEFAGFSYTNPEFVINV
propertyLabel: IC50 (nM)
Write down the numeric answer in nM and omit the unit.

Exercise: Query for protein kinase C beta-1 (Homo sapiens): what IC50 does the record show for "CN(C)CCCn1cc(C2=C(c3cn(C(=O)CNC(=O)OC(C)(C)C)c4ccccc34)C(=O)NC2=O)c2ccccc21" ?
Key: 150

----------
- targetOrSystem: protein kinase C epsilon (Homo sapiens)
- Sequence (Q02156 1-737): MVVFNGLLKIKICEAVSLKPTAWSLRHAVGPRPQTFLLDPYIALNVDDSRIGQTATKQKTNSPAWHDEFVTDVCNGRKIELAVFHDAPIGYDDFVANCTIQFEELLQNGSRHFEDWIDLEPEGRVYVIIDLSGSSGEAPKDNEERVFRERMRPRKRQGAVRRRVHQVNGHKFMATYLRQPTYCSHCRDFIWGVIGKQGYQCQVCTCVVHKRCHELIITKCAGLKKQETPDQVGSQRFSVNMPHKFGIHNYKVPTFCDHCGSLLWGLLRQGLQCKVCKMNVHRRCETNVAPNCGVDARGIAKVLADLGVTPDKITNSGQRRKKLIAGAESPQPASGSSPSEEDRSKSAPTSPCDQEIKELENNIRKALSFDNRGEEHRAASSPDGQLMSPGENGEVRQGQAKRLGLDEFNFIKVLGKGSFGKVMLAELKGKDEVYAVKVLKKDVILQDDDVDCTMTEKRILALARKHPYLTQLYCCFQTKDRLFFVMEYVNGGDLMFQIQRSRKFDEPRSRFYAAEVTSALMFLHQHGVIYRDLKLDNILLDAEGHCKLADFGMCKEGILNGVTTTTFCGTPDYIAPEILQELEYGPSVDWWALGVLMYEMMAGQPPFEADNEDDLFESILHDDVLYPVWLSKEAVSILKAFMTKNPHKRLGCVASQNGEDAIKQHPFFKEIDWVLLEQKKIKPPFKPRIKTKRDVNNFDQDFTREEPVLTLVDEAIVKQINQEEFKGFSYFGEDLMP
propertyLabel: IC50 (µM)
Give a bare numeral; the unit µM is implied.

Exercise: Please provide the recorded IC50 for "CN(C)CCCn1cc(C2=C(c3cn(C(=O)CNC(=O)OC(C)(C)C)c4ccccc34)C(=O)NC2=O)c2ccccc21" , tested on protein kinase C epsilon (Homo sapiens).
Key: 6.1

----------
- targetOrSystem: protein kinase C gamma (Homo sapiens, UniProt P05129)
propertyLabel: pIC50
# pIC50 is unitless: minus log10 of the molar concentration; print number only

Exercise: Please provide the recorded pIC50 for CN(C)CCCn1cc(C2=C(c3cn(C(=O)CNC(=O)OC(C)(C)C)c4ccccc34)C(=O)NC2=O)c2ccccc21 [Example 2] , tested on protein kinase C gamma (Homo sapiens, UniProt P05129).
Key: 5.59

----------
- targetOrSystem: protein kinase C delta (Homo sapiens)
- Sequence (Q05655 whole entry): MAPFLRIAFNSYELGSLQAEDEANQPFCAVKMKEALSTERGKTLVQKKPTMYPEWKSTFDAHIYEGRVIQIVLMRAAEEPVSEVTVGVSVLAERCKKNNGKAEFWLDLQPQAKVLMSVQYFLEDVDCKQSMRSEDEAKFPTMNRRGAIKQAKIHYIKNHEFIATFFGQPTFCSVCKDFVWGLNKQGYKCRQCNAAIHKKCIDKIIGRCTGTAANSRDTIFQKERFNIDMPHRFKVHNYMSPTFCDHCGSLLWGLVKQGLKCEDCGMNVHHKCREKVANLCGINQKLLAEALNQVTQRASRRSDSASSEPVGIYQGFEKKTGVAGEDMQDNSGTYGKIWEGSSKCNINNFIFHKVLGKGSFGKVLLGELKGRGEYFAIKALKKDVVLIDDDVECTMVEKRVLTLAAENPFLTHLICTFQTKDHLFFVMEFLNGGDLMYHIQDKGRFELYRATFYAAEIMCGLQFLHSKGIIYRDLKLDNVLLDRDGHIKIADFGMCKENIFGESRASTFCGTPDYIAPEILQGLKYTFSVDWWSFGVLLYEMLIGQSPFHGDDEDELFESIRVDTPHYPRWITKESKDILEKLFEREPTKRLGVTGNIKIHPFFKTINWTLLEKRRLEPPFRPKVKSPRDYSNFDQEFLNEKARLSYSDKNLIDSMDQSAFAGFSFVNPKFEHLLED
- testMethodNotes: PKC Enzyme Assay, delta isozyme
- conditionDescription: 30 μM ATP, 30° C., 10 minutes
propertyLabel: pIC50
API: returns pIC50 as number; meaning -log10 of concentration in mol/L.

Exercise: Entry under review: CN(C)CCCn1cc(C2=C(c3cn(C(=O)CNC(=O)OC(C)(C)C)c4ccccc34)C(=O)NC2=O)c2ccccc21 [Example 2] . Reported pIC50?
Key: 5.54

----------
- targetOrSystem: protein kinase C beta-2 (Homo sapiens)
- Sequence (P05771 1-673 isoform P05771-2): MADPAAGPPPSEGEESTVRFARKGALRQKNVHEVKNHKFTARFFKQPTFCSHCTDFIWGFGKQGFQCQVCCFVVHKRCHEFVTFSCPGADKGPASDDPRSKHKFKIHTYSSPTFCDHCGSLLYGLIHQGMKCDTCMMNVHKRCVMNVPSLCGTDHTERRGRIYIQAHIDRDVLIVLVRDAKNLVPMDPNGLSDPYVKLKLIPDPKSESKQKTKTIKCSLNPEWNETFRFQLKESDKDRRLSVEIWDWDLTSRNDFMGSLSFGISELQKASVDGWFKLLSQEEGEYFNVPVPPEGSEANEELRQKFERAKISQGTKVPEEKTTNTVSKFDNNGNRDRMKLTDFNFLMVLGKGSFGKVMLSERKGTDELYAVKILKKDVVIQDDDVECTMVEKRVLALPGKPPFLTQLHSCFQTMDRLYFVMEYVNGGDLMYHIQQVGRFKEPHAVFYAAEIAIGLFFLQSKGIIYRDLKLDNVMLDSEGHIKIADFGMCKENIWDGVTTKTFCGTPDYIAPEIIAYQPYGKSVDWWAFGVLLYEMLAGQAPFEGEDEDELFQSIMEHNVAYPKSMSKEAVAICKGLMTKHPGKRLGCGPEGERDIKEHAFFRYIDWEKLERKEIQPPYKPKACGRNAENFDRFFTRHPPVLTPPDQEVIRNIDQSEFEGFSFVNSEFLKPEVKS
propertyLabel: IC50 (nM)
Report as a plain number; the unit nM is understood.

Exercise: Form field - read-out: IC50; system: protein kinase C beta-2 (Homo sapiens); submitted item: CN(C)CCCn1cc(C2=C(c3cn(C(=O)CNC(=O)OC(C)(C)C)c4ccccc34)C(=O)NC2=O)c2ccccc21 [Example 2]
Key: 40
